Kindly state pIC50 for each of the entries shown.
# System: M. tuberculosis H37Rv growth inhibition with meropenem
# assay details: dose response, H37Rv, with and without meropenem (AID 434987);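 also: growth over 7 days at 37 °C before Alamar Blue read on day 9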
# condition set: M. tuberculosis H37Rv growth inhibition; measured here: IC50 without meropenem
pIC50: −log10 of the molar value.

Exam item: # lookup: pIC50 of `COc1cc(SC)ccc1C(=O)Nc1ccc(C)cc1C`
Marked response: < 4.00

Exam item: # lookup: pIC50 of `CCN(CC)C(=O)Cn1cc(C(=O)C(=O)N2CCN(c3ccccc3)CC2)c2ccccc21`
Marked response: < 4.00

Exam item: Param item = `Cc1ccc(Sc2c(C(=O)Nc3ccc(F)cc3F)c(C(F)(F)F)nn2C)cc1` ; retrieve measured pIC50.
Marked response: < 4.00

Exam item: For the compound shown here, CCCCCC(=O)Nc1cccc(C2=NOC3(C2)C[C@@H](C(N)=O)N(C(=O)CC(c2ccccc2)c2ccccc2)C3)c1 (stereo not given in full) , give the reported pIC50.
Marked response: < 4.00

Exam item: What pIC50 value was documented for this compound, `CCCCCn1c(=O)c(C(=O)Nc2cnccn2)c(O)c2ccccc21` ?
Marked response: 4.86
